- EXPERIMENTAL_TARGET: UniProt Q9UKV8
- Sequence (Q9UKV8 whole entry): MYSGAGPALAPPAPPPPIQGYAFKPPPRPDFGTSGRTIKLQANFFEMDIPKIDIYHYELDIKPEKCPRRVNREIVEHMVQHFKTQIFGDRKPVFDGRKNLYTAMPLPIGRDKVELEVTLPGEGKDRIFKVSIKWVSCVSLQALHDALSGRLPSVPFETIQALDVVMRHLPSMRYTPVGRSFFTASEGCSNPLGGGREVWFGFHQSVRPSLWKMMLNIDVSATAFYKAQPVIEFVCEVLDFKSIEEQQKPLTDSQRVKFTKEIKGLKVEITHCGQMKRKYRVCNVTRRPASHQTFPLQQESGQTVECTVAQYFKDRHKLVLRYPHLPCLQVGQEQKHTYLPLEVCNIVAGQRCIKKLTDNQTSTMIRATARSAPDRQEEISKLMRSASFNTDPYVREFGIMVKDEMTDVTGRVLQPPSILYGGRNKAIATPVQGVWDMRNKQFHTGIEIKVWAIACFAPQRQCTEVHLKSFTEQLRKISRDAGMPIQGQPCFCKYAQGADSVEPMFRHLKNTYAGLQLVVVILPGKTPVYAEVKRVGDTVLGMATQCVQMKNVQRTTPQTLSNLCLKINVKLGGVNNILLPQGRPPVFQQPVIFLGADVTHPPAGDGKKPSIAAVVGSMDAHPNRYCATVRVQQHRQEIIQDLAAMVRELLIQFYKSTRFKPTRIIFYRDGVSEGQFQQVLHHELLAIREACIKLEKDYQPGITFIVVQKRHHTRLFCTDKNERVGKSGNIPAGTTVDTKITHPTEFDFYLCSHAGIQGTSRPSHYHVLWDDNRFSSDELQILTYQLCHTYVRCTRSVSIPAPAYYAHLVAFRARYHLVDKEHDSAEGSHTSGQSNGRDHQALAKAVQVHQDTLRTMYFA
Counter-ions that a name gives are not always drawn.
QUANTITY: IC50 (nM)
Number only, in nM; omit the unit.

Requested read-out: IC50. Entry: NCCc1cc(O)c(O)cc1O [OXIDOPAMINE HYDROCHLORIDE] 1610

###

- TEST_DESCRIPTION: Binding affinity to pre-miR-21 (unknown origin) assessed as dissociation constant
QUANTITY: Kd (µM)
Number only, in µM; omit the unit.

Requested read-out: Kd. Entry: NC(=O)C1=Cc2ccccc2C/C1=N/CC(=S)Nc1ccccc1 3.7

###

- EXPERIMENTAL_TARGET: Protein lin-28 homolog A (Homo sapiens)
- Sequence (Q9H9Z2 whole entry): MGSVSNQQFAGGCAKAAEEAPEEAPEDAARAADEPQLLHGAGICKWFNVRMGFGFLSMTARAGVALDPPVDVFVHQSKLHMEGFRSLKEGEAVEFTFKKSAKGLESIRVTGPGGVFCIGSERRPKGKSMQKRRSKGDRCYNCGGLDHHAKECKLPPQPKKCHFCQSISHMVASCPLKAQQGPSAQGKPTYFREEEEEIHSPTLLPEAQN
QUANTITY: IC50 (µM)
Number only, in µM; omit the unit.

What value of IC50 on Protein lin-28 homolog A (Homo sapiens) does CC(=O)N(C)c1cccc(-c2ccc3nnc(C)n3n2)c1 have? 8

Source listed as ChEMBL document CHEMBL5233220.
